pIC50: −log10 of the molar value. Structures can show the parent of a compound that is named as a salt.
// each record: one item and its pIC50 for MYLK4 (Homo sapiens (Human), UniProt Q86YV6)

Worked cases, answers included:
In [3]: df
Out[3]:
                                   molecule  endpoint_result
0  NCC(C(=O)Nc1ccc(-c2cn[nH]c2)cc1)c1ccc(CO)cc1 (stereo not drawn) [Compound 11, dihydrochloride]     6.00 to 7.00
1  NCC(C(=O)Nc1ccc(-c2cn[nH]c2)cc1)n1cc(-c2ccccc2)nn1 (stereo not drawn) [Compound 2, dihydrochloride]     6.00 to 7.00
2  Cc1ccc(C(=O)OCc2ccc(C(CN)C(=O)Nc3ccc(-c4cn[nH]c4)cc3)cc2)c(C)c1 (stereo not drawn) [Compound 12, dihydrochloride]     6.00 to 7.00
3  NCC(OCc1ccccc1)C(=O)Nc1ccc(-c2cn[nH]c2)cc1 (stereo not drawn) [Compound 6]     6.00 to 7.00
4  NCC(C(=S)Nc1ccc(-c2cn[nH]c2)cc1)c1ccccc1 (stereo not drawn) [Compound 14, dihydrochloride]     6.00 to 7.00
5  NC[C@H](C(=O)Nc1ccc(-c2cn[nH]c2)cc1)c1ccccc1 [Compound 21, dihydrochloride]     6.00 to 7.00

Hey, can you go through the list below and give me pIC50 for every item?
1. NCC(C(=O)Nc1ccc(-c2cn[nH]c2)cc1)c1ccccc1 (racemic) [Compound 7, dihydrochloride]
2. NCC(C(=O)Nc1ccc(-c2cn[nH]c2)cc1F)c1ccccc1 (stereo not drawn) [Compound 19, dihydrochloride]
3. NCC(C(=O)Nc1ccc(-c2cn[nH]c2)cc1)c1ccc(C=O)cc1 (stereo not drawn) [Compound 13, dihydrochloride]
4. NCC(NC(=S)Nc1ccc(-c2cn[nH]c2)cc1)c1ccccc1 (stereo not drawn) [Compound 15, dihydrochloride]
5. [N-]=[N+]=NC(CN)C(=O)Nc1ccc(-c2cn[nH]c2)cc1 (stereo not drawn) [Compound 1, dihydrochloride]
6. NCCN(Cc1ccc(F)cc1)C(=O)c1ccc(-c2cn[nH]c2)cc1 [Compound 17, dihydrochloride]
7. Cc1ccc(C(=O)OCc2ccc([C@@H](CN)C(=O)Nc3ccc4cnccc4c3)cc2)c(C)c1 [AR-13324, Netarsudil, reference compound]

RESULT:
1: 7.00 to 8.00; 2: 6.00 to 7.00; 3: 6.00 to 7.00; 4: 6.00 to 7.00; 5: 6.00 to 7.00; 6: < 5.00; 7: < 6.00

Give pIC50 for each of the items listed below.
1. NC[C@@H](C(=O)Nc1ccc2cnccc2c1)c1ccc(CO)cc1 [AR-13503, reference compound]
2. NCC(Oc1ccc(C(F)(F)F)cc1)C(=O)Nc1ccc(-c2cn[nH]c2)cc1 (stereo not drawn) [Compound 5, dihydrochloride]

RESULT:
["6.00 to 7.00", "6.00 to 7.00"]

====

tested_system: UniProt Q13464
Sequence (Q13464 whole entry, species assumed): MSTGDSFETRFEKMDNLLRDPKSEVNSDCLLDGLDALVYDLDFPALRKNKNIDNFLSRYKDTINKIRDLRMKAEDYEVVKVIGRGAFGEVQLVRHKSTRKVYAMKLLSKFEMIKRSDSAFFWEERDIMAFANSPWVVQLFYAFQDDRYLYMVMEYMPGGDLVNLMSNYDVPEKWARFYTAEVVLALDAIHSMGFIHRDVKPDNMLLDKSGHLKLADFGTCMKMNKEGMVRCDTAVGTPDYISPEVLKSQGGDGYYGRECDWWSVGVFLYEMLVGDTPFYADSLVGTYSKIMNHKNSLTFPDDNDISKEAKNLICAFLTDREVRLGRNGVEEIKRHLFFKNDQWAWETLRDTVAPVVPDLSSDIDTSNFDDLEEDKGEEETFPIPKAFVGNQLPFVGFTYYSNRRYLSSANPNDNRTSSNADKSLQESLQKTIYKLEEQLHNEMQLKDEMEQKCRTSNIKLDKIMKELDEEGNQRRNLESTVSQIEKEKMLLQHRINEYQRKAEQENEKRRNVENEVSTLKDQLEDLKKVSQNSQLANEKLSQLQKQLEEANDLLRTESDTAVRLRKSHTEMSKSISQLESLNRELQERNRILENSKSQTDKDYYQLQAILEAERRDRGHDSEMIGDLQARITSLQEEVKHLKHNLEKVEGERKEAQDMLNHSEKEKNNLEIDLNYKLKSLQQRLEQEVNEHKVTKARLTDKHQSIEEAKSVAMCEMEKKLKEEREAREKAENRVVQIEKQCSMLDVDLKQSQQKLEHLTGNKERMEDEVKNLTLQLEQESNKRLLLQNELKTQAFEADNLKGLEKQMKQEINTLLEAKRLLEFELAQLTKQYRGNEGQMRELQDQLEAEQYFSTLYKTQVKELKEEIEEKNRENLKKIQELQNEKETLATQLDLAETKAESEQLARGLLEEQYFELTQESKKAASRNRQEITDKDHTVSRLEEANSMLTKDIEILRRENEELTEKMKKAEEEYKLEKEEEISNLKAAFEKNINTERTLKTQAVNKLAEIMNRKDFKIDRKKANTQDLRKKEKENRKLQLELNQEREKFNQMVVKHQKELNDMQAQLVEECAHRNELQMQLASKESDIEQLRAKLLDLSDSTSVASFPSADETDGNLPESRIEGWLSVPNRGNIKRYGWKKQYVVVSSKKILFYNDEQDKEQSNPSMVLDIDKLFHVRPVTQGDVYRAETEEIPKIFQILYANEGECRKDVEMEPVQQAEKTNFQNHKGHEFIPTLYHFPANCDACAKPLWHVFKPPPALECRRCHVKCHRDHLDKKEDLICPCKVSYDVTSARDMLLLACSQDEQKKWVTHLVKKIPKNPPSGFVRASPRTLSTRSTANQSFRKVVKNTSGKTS
assay_explanation: biochemical
Structures can show the parent of a compound that is named as a salt.
Task for the reader: assign each of the following molecules its reported IC50.

Solved entries (count: 3):
                                   molecule  endpoint_label  endpoint_result
0  NCC(Oc1ccccc1)C(=O)Nc1ccc(-c2cn[nH]c2)cc1 (stereo not shown) [Compound 4, dihydrochloride]            IC50       1 to 10 nM
1  NCC(NC(=S)Nc1ccc(-c2cn[nH]c2)cc1)c1ccccc1 (stereo not shown) [Compound 15, dihydrochloride]            IC50   100 to 1000 nM
2  NCCN(Cc1ccc(F)cc1)C(=O)c1ccc(-c2cn[nH]c2)cc1 [Compound 17, dihydrochloride]            IC50   100 to 1000 nM

Each molecule below has a recorded value; state its IC50.
1. NCC(C(=O)Nc1ccc(-c2cn[nH]c2)cc1)n1cc(-c2ccccc2)nn1 (stereo not shown) [Compound 2, dihydrochloride]
2. NC[C@H](C(=O)Nc1ccc(-c2cn[nH]c2)cc1)c1ccccc1 [Compound 21, dihydrochloride]
3. NCC(O)C(=O)Nc1ccc(-c2cn[nH]c2)cc1 (stereo not shown) [Compound 3, dihydrochloride]

RESULT:
1. 10 to 100 nM
2. 100 to 1000 nM
3. 100 to 1000 nM

Go through the items and report each one's IC50.
1. NCC(OCc1ccccc1)C(=O)Nc1ccc(-c2cn[nH]c2)cc1 (stereo not shown)
2. Cc1ccc(C(=O)OCc2ccc(C(CN)C(=O)Nc3ccc(-c4cn[nH]c4)cc3)cc2)c(C)c1 (stereo not shown) [Compound 12, dihydrochloride]
3. NCC(C(=O)Nc1ccc(-c2cn[nH]c2)cc1)c1ccccc1 (racemic) [Compound 7, dihydrochloride]
4. NCC(C(=O)Nc1ccc(-c2cn[nH]c2)cc1)c1ccc(F)cc1 (stereo not shown) [Compound 8, dihydrochloride]

RESULT:
10 to 100 nM
10 to 100 nM
1 to 10 nM
1 to 10 nM
